Answer each item with its documented growth.
system: HCC-2998 colon; assay: NCI-60 one-dose screen, 48 h (100 = growth as untreated, 0 = no growth, -100 = all killed); details: 10 µM unless noted
This is part of a sample that, as a whole, favours compounds with a hit. Of some 83,000 tested, about 20% had one in any assay.
One number for each entry, in %.

# input Entry "CCCC(=O)OCC(COC(=O)CCC)OC(=O)CCC" needs its growth filled in; supply it.
# output 95.3

# input Entry O=[N+]([O-])c1ccc(NC(c2ccccc2)c2ccc3cccnc3c2O)cc1 (stereo not drawn) needs its growth filled in; supply it.
# output 29.8

# input Entry "O=[N+]([O-])c1ccc(N2CCN=N2)cc1" needs its growth filled in; supply it.
# output 107

# input Entry "CC(=O)Oc1cc(C)c(OC(C)=O)c(C)c1C" needs its growth filled in; supply it.
# output 105

# input Entry "O=C(O)COc1ccccc1F" needs its growth filled in; supply it.
# output 111

# input Entry "CN(C)C(=S)N(C)C" needs its growth filled in; supply it.
# output 103

Give growth for all compounds that follow.
1. Nc1nc(-c2ccccn2)cc(-c2cc(-c3ccccn3)nc(N)n2)n1
2. CSc1nc(N)c(N)c(N)n1
3. Cc1nc(Nc2ccc(Cl)cc2)c2cnn(-c3ccccc3)c2n1
4. C/C(CC(C)C)=N/NC(N)=S
5. O=C(c1ccccc1)C1(Br)CCCCC1
6. COC(=O)c1nc(=S)[nH]c(C(=O)OC)c1C(=O)c1ccc(OC)cc1
7. Oc1ccc(O)c(-c2ccccc2)c1

# output
1: 104; 2: 109; 3: 105; 4: 101; 5: 101; 6: 118; 7: 65.6

====

tested on: A549/ATCC NSCLC; assay: NCI-60 one-dose screen, 48 h (100 = growth as untreated, 0 = no growth, -100 = all killed); conditions: 10 µM unless noted
This is part of a sample that, as a whole, favours compounds with a hit. Of some 83,000 tested, about 20% had one in any assay. Activity calls are given as the source filed them. How the source made its calls: active means growth percent below 10; inactive means the rest.
Answer each item with its documented growth.

Solved cases (2 shown):
# input Entry "CCc1ccccc1-n1[nH]c(C)c(C=N)c1=O" needs its growth filled in; supply it.
# output 126% (inactive)

# input Entry "CCCCC/C(C)=N\NC(N)=S" needs its growth filled in; supply it.
# output 78.4% (inactive)

Give growth for all compounds that follow.
1. CCN(CC)C(CC(=O)c1ccccc1)C(=O)c1ccccc1 (configuration not stated)
2. N#Cc1c[nH]n2ccnc12
3. Cn1c(-c2ccccc2)cc(=O)cc1-c1ccccc1
4. O=S(=O)(O)c1ccc2cc(O)ccc2c1
5. C/C(CC(C)C)=N/NC(N)=S

# output
["102% (inactive)", "86.7% (inactive)", "96.4% (inactive)", "111% (inactive)", "83.6% (inactive)"]

Give growth for all compounds that follow.
1. OCCS
2. CC(=O)c1cccc(OC(=O)c2ccccc2)c1
3. CCOCCC(=O)O

# output
95.1% (inactive)
99% (inactive)
115% (inactive)

Give growth for all compounds that follow.
1. CCOP(C)(=O)/C(Cc1ccc(OC)c(OC)c1)=N\O (configuration not stated)
2. NNC(=O)Nc1ccccc1
3. CCC(C)NC(=O)c1ccccc1C (configuration not stated)

# output
["108% (inactive)", "113% (inactive)", "100% (inactive)"]

Give growth for all compounds that follow.
1. Cc1cc(Cl)nc(Nc2ccccc2)n1
2. C#CCOC(=O)C(N)CS (configuration not stated)
3. OC1CCCN(Cc2ccccc2)C1 (configuration not stated)
4. CCN(CC)CCO/N=C1\CC(c2ccc(OC)c(OC)c2)Oc2ccccc21 (configuration not stated)

# output
1: 104% (inactive); 2: 118% (inactive); 3: 85.4% (inactive); 4: 97% (inactive)

Numbers sourced from PubChem BioAssay (NCI).
